molecular target: ZmDRIK1-K217-P492 (Zea mays, UniProt C0P4K9); construct: kinase domain, K217-P492; test: biochemical; conditions: read-out: dTm B, sheet ZmDRIK1-K217-P492;; DSF, Boltzmann fit, 0.1% DMSO
Sequence (C0P4K9 1-514): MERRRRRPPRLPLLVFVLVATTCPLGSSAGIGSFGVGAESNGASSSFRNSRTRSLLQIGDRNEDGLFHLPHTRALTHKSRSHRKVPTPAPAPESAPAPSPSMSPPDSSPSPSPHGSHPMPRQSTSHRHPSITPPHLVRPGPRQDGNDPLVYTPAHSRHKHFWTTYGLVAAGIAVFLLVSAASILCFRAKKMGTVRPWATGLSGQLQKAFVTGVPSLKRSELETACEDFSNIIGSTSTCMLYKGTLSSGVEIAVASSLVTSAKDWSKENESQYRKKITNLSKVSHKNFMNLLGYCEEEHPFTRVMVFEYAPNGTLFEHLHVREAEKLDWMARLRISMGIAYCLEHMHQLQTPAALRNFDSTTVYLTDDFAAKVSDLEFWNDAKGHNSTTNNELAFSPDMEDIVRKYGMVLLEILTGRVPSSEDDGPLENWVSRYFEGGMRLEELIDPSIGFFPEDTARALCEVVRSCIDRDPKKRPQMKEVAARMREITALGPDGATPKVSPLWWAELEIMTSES
Structures can show the parent of a compound that is named as a salt.
endpoint.label: ΔTm at 10 µM (°C)
// units = °C; emit number, no label

Request: Identify measured ΔTm at 10 µM associated with CC(C)N(CCC(=O)c1ccc2ccccc2c1)Cc1ccccc1 [ZM 39923 HCl]
Result: -2.03

Request: Let me know recorded ΔTm at 10 µM for COC(=O)c1ccc2c(c1)NC(=O)/C2=C(\Nc1ccc(N(C)C(=O)CN2CCN(C)CC2)cc1)c1ccccc1 [Nintedanib (BIBF 1120)] , thanks.
Result: -1.32

Request: Return the recorded ΔTm at 10 µM value; entry: N[C@@H]1CCCN(c2c(/C=C3\SC(=O)NC3=O)cccc2-c2ccccc2)C1 [AZD1208]
Result: -0.752

Request: Look up and report measured ΔTm at 10 µM for this entry: Cc1cc(C)nc(NS(=O)(=O)c2ccc(NC(=S)NC(=O)COc3ccc(Br)cc3Cl)cc2)n1 [ZCL278]
Result: -1.02

Request: State its ΔTm at 10 µM for this compound: C[C@]1(O)C[C@@H](c2nc(-c3ccc4ccc(-c5ccccc5)nc4c3)c3c(N)nccn32)C1 [OSI-906 (Linsitinib)]
Result: -0.53

Request: Using known records, supply ΔTm at 10 µM for Cn1cc(-c2[nH]c3cc(NC(=O)[C@H](N)C4CCCCC4)cc4c3c2C=NNC4=O)cn1 [PF-477736]
Result: -1.09

Request: Please give the documented ΔTm at 10 µM of CC(C)(O)CC(=O)NCCn1ccc2ncnc(Nc3ccc(Oc4cccc(C(F)(F)F)c4)c(Cl)c3)c21 [TAK-285]
Result: -0.527

Request: Specify ΔTm at 10 µM for Cn1cc(-c2cnn3c(N)c(Br)c([C@@H]4CCCNC4)nc23)cn1 [MK-8776 (SCH 900776)] and stop.
Result: -0.951
